Reported IC50 values are given for each entry in this list.
- experimental-system: α4β1 (Homo sapiens, UniProt P05556+P13612, DEL729-798)
- Construct: purchased R&D Systems 5668-A4
- Sequence (P13612 34-977 limits assumed, stated change not applied): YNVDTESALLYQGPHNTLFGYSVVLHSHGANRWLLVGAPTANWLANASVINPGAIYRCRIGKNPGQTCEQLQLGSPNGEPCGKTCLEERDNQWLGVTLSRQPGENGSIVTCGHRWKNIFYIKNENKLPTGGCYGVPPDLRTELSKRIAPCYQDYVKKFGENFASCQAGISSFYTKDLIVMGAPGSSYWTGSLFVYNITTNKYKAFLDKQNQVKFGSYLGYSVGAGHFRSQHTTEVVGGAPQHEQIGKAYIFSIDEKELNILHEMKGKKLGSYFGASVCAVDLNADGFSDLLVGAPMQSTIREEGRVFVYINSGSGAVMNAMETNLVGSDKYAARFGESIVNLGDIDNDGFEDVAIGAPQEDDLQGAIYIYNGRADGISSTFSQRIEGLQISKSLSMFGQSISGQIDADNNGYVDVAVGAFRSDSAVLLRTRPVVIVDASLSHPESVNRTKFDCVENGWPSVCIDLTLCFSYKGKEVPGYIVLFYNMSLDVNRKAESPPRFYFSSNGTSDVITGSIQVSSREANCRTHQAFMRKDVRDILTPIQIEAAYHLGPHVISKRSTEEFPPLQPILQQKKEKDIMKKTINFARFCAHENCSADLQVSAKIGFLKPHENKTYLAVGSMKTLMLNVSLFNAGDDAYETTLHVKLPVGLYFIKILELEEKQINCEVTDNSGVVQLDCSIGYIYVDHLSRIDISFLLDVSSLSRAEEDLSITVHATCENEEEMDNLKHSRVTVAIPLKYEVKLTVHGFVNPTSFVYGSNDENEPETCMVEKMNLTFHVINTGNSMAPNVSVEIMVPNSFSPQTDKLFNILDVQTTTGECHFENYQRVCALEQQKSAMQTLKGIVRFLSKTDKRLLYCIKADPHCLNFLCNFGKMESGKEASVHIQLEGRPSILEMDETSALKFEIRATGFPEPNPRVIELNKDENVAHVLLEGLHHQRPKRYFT
- Sequence (P05556 21-728 limits assumed, stated change not applied): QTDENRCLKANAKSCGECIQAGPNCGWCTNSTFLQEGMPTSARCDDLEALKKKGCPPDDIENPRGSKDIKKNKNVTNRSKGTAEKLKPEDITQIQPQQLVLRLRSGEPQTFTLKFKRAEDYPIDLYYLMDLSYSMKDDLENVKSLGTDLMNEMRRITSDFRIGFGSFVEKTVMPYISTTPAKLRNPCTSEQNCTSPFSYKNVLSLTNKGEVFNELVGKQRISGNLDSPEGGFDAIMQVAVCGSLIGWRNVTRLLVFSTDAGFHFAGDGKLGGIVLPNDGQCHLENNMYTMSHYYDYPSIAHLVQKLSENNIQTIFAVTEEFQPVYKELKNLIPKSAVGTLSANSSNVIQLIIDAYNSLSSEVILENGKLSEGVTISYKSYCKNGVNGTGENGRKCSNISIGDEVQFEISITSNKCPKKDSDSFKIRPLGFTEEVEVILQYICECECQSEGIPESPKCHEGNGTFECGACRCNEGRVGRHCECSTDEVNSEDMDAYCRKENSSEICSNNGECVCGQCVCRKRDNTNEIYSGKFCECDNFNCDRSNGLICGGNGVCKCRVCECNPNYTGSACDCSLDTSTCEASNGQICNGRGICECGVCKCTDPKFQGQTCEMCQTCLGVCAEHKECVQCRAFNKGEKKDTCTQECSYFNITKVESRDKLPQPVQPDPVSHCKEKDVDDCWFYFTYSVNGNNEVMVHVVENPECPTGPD
- experiment-summary: α4β1-VCAM Competition ELISA
- Format: binding
- assay-setup: Table 3-B, Selectivity (α4β1); range classes; read-out: α4β1 ELISA IC50
Bridge positions count the residues as written; N and C are the ends. Square brackets hold non-standard residues; d marks the D form. Peptide text beside a SMILES is read from it. Phe(4-tBu) = CC(C)(C)c1ccc(C[C@H](N)C(=O)O)cc1; 1Nal = N[C@@H](Cc1cccc2ccccc12)C(=O)O; 2Nal = N[C@@H](Cc1ccc2ccccc2c1)C(=O)O; NMeR = CN[C@@H](CCCNC(=N)N)C(=O)O; Tic = O=C(O)[C@@H]1Cc2ccccc2CN1; β3hE = N[C@@H](CCC(=O)O)CC(=O)O; Pen = CC(C)(S)[C@H](N)C(=O)O; dNMeK = CN[C@H](CCCCN)C(=O)O

The examples below pair each entry with its known result.
{"compound": "CC(=O)N[C@@H]1C(=O)N(C)[C@@H](CCCNC(=N)N)C(=O)N[C@@H](CO)C(=O)N[C@@H](CC(=O)O)C(=O)N[C@@H]([C@@H](C)O)C(=O)N[C@@H](CC(C)C)C(=O)N[C@H](C(=O)N[C@@H](Cc2ccc3ccccc3c2)C(=O)N[C@@H](CCC(=O)O)CC(N)=O)C(C)(C)SSC1(C)C [compound 155] (Ac-[Pen][NMeR]SDTL[Pen][2Nal][β3hE]-NH2; disulfide 1-7)", "experimental-system": "α4β1 (Homo sapiens, UniProt P05556+P13612, DEL729-798)", "IC50": "1000 to 10000 nM"}
{"compound": "CC(=O)N[C@@H]1C(=O)N(C)[C@@H](CCCNC(=N)N)C(=O)N[C@@H](CO)C(=O)N[C@@H](CC(=O)O)C(=O)N[C@@H]([C@@H](C)O)C(=O)N[C@@H](CC(C)C)C(=O)N[C@H](C(=O)N[C@@H](Cc2ccc(C(C)(C)C)cc2)C(=O)N[C@@H](CCC(=O)O)CC(=O)O)C(C)(C)SSC1(C)C [compound 152] (Ac-[Pen][NMeR]SDTL[Pen][Phe(4-tBu)][β3hE]-OH; disulfide 1-7)", "experimental-system": "α4β1 (Homo sapiens, UniProt P05556+P13612, DEL729-798)", "IC50": "100 to 500 nM"}
{"compound": "CC(=O)N[C@@H]1C(=O)N(C)[C@@H](CCCNC(=N)N)C(=O)N[C@@H](CO)C(=O)N[C@@H](CC(=O)O)C(=O)N[C@@H]([C@@H](C)O)C(=O)N[C@@H](CC(C)C)C(=O)N[C@H](C(=O)N[C@@H](Cc2ccc(C(C)(C)C)cc2)C(=O)N[C@@H](CCC(=O)O)CC(=O)N[C@H](CCCCN)C(N)=O)C(C)(C)SSC1(C)C [compound 153] (Ac-[Pen][NMeR]SDTL[Pen][Phe(4-tBu)][β3hE][dK]-NH2; disulfide 1-7)", "experimental-system": "α4β1 (Homo sapiens, UniProt P05556+P13612, DEL729-798)", "IC50": "1000 to 10000 nM"}
{"compound": "CC(=O)N[C@@H]1C(=O)N(C)[C@@H](CCCNC(=N)N)C(=O)N[C@@H](CO)C(=O)N[C@@H](CC(=O)O)C(=O)N[C@@H]([C@@H](C)O)C(=O)N[C@@H](CC(C)C)C(=O)N[C@H](C(=O)N[C@@H](Cc2cccc3ccccc23)C(=O)N[C@@H](CCC(=O)O)C(=O)N(C)[C@H](CCCCN)C(N)=O)C(C)(C)SSC1(C)C [compound 18] (Ac-[Pen][NMeR]SDTL[Pen][1Nal]E[dNMeK]-NH2; disulfide 1-7)", "experimental-system": "α4β1 (Homo sapiens, UniProt P05556+P13612, DEL729-798)", "IC50": "500 to 1000 nM"}
{"compound": "CC(=O)N[C@@H]1C(=O)N(C)[C@@H](CCCNC(=N)N)C(=O)N[C@@H](CO)C(=O)N[C@@H](CC(=O)O)C(=O)N[C@@H]([C@@H](C)O)C(=O)N[C@@H](CC(C)C)C(=O)N[C@H](C(=O)N2Cc3ccccc3C[C@H]2C(=O)N[C@@H](CCC(=O)O)CC(N)=O)C(C)(C)SSC1(C)C [compound 154] (Ac-[Pen][NMeR]SDTL[Pen][Tic][β3hE]-NH2; disulfide 1-7)", "experimental-system": "α4β1 (Homo sapiens, UniProt P05556+P13612, DEL729-798)", "IC50": "1000 to 10000 nM"}

With those in mind, consider the next compound.
Problem: Bench note: what IC50 did CC(=O)N[C@@H]1C(=O)N(C)[C@@H](CCCNC(=N)N)C(=O)N[C@@H](CO)C(=O)N[C@@H](CC(=O)O)C(=O)N[C@@H]([C@@H](C)O)C(=O)N[C@@H](CC(C)C)C(=O)N[C@H](C(=O)N[C@@H](Cc2c[nH]c3ccccc23)C(=O)N[C@@H](CCC(=O)O)CC(=O)O)C(C)(C)SSC1(C)C [compound 146] (Ac-[Pen][NMeR]SDTL[Pen]W[β3hE]-OH; disulfide 1-7) show?
Solution: 1000 to 10000 nM

Numbers sourced from patent US9809623B2.
